Taken from patent US20230322715A1.

Target: ALKBH5 (Homo sapiens (Human))
Sequence (Q6P6C2 whole entry): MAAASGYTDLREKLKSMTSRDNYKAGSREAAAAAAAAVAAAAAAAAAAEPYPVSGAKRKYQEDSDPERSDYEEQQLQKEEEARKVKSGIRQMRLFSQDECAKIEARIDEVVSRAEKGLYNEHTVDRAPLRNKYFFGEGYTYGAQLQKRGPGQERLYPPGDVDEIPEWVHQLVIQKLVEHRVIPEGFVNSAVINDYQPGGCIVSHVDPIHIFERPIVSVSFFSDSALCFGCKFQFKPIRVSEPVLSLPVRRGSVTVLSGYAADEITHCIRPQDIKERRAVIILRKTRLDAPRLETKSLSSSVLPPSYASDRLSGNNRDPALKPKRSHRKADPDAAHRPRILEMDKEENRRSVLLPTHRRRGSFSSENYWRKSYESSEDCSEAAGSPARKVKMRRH
Assay: Fluorescence enzymatic inhibition assay (m6A7-Broccoli RNA / DFHBI-1T) against ALKBH5
Assay type: biochemical
Settings: ALK series, permeability data and IC50 tables; read-out: Enzymatic IC50 ALKBH5
MEASURE NAME: IC50 (µM)

COC(=O)C1COC(c2ccc(-c3ccccc3)o2)N1 (stereo not shown)
5.4
COC(=O)C1COC(c2cc(C(C)(C)C)ccc2O)N1 (stereo not shown)
24

A = COC(=O)C1COC(c2ccccc2O)N1 (stereo not shown)
B = COC(=O)C1COC(c2ccc(OC)cc2O)N1 (stereo not shown)
Returns: the label, A or B , whose recorded IC50 is the lower number. Indicate your choice by writing its label.
A

* * *

Test: elogD / log D determination
Conditions: Table 700 compounds
MEASURE NAME: elogD

These recorded examples may help you get a feel for the data.
CC1(C)SCC(C)(C(=O)O)N1C(N)=O (centres unmarked) [ALK-05]
0.16
O=C(O)N1CCC(F)(C2NCCS2)C1 (centres unmarked) [ALK-03]
0.62
CC1(C)S[C@@H]2[C@H](N)C(=O)N2[C@H]1C(=O)O [ALK-07]
0.95
COC(=O)C1COC(c2ccc(-c3ccccc3)o2)N1 (centres unmarked) [ALK-18]
0.73
CC(C)(C)OC(=O)N1CCC(F)(C2NCCS2)C1 (centres unmarked) [ALK-02]
1.40
CC1(C)[C@H](C(=O)O)N2C(=O)C[C@H]2S1(=O)=O [ALK-09]
0.41

P = O=C1N[C@H](C(=O)O)CS1 [ALK-10]
Q = O=C(O)[C@H]1NCCS1 [ALK-06]
R = COC(=O)C1COC(c2ccc(OC)c(Cl)c2)N1 (centres unmarked) [ALK-23]
S = COC(=O)C1COC(c2ccccc2O)N1 (centres unmarked) [ALK-16]
Order the records so the highest elogD appears first and the lowest last. Give me the labels in the order the question wants.
R, S, Q, P

* * *

Molecular target: UniProt:Q9BYJ9
Sequence (Q9BYJ9 whole entry): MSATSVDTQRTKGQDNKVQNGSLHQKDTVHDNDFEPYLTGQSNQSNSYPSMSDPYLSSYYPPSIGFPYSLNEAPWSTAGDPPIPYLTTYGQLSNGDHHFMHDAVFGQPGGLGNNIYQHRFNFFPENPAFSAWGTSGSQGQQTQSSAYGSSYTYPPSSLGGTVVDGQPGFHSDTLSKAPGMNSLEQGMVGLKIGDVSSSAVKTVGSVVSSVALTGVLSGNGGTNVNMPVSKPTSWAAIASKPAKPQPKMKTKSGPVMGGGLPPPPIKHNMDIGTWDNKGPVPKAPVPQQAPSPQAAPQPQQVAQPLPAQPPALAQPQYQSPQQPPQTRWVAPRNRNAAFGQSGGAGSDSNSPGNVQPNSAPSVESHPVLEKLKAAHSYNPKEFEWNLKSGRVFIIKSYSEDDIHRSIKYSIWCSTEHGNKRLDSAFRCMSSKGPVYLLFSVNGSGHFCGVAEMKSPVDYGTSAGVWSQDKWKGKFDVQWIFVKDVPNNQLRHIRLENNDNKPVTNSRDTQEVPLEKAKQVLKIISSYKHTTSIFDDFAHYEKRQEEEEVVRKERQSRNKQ
Test: In vitro FRET assay for binding affinities of YTH inhibitors, YTHDF1
Conditions: read-out: Ki YTHDF1
pKi: −log10 of the molar value.
MEASURE NAME: pKi

CN(Cc1ccc(C(F)(F)F)cc1)c1ccc(CNC2CC2)cn1
9.21

I = COc1ccc(CNc2ccc(CN(C)C)cn2)cc1
II = Fc1ccc(CNc2ccc(CNC3CC3)cn2)cc1
III = CC(Nc1ccc(CNC2CC2)cn1)c1ccccc1 (stereo not drawn)
List items by pKi in falling order. Write the labels, ordered according to the request.
III, I, II

1 = Fc1ccc(CNc2ccc(CNC3CC3)cn2)cc1F
2 = FC(F)(F)c1ccc(CNc2ccc(CNC3CC3)cn2)cc1
3 = c1cncc(CNc2ccc(CNC3CC3)cn2)c1
4 = Cc1ccc(Nc2ccc(CNC3CC3)cn2)cc1C
Arrange by pKi, high to low. Enter labels, ranked according to the request.
3, 2, 1, 4
(3: 10.05, 2: 9.79, 1: 9.55, 4: 8.85)

A = COc1ccc(CNc2ccc(CNC3CC3)cn2)c(OC)c1
B = COc1ccc(CNc2ccc(CNC3CC3)cn2)cc1OC
Which shows the larger pKi value: A or B ? To answer, give the label that identifies your chosen option.
B
(B: 9.91, A: 9.64)
